# experimental_protocol: chemical genetic growth profiling, strain panel (AID 1159580);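 further: tested at 20 µM; growth read once vehicle control cultures reached saturation at 30 °C; lower values mean less growth of the strain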
# particulars: S. cerevisiae deletion strains, growth OD, locus YER015W, strain faa2
About 2,000 (36%) of roughly 5,500 compounds were called active. Roughly 18% stayed inconclusive and do not appear here. No stated cut-off is given here; in the data, active means normalized growth mostly below about 0.91 (no sharp cut-off); inconclusive means no clear call, values can overlap the other calls; inactive means mostly above about 0.92. The list shows a part of the results.
Return exactly one item of Y = active, N = inactive

Request: For "C=CCc1ccc(OC)cc1" , what call appears in the results of this test?
Response: N

Request: Query: recorded result category for C[C@]12CCC(=O)C=C1C=CC1C2CC[C@@]2(C)C1CC[C@@]2(O)CCC(=O)O (stereo not given in full) in this test
Response: N

Request: Call for entry CC(=O)S[C@@H]1CC2=CC(=O)CC[C@]2(C)[C@H]2CC[C@@]3(C)[C@@H](CC[C@@]34CCC(=O)O4)C12 (stereo not given in full) :
Response: N

Request: Lab log entry: "CC[C@@]1(O)C[C@H](O)c2c(cc3c(c2O)C(=O)c2c(O)ccc(O)c2C3=O)[C@H]1C(=O)OC" — outcome as called in the assay?
Response: Y

Request: Give the logged outcome of this assay for the following compound: "Oc1cc(O)c2c(c1)O[C@H](c1ccc(O)c(O)c1)[C@H](O)C2"
Response: N

Request: Per the assay record, what outcome was assigned to "COc1ccc([C@H]2Oc3c(I)c(OC)cc(OC)c3C[C@@H]2O)cc1OC" ?
Response: N

Request: Which outcome did this test record for the compound COC(=O)[C@@H]1OC(=O)C2OC23[C@@]1(C)CCC1[C@]2(C)C(C[C@H](O)[C@]13C)C(C)(C)[C@H](OC(C)=O)C[C@@H]2OC(C)=O (stereo not given in full) ?
Response: N

Request: # outcome recorded in this test, key = C[C@]12CCC(=O)C=C1C=CC1C2CC[C@@]2(C)C1CC[C@@]21CCC(=O)O1 (stereo not given in full)
Response: N

Request: Given "CN(C)CCN(Cc1ccccc1)c1ccccn1" , state the outcome it received in this test.
Response: N

Request: Please let me know the test result on file for "CC[C@@]1(O)C[C@H](O[C@H]2C[C@H](N(C)C)[C@H](O)[C@H](C)O2)c2c(cc3c(c2O)C(=O)c2c(O)cccc2C3=O)[C@H]1C(=O)OC" .
Response: Y

Request: For this compound, state the assay outcome: "Oc1ccc2c(c1)O[C@H](c1ccc(O)c(O)c1)[C@@H](O)C2"
Response: N

Request: What did this assay record as the result for "Oc1cc(O)c2c(c1)O[C@H](c1ccc(O)c(O)c1)[C@@H](O)C2" ?
Response: N

Request: Short answer needed: outcome of this test for "CN(C)CCN(Cc1cccs1)c1ccccn1" ?
Response: N

Request: Short answer needed: outcome of this test for "COc1ccc(CN(CCN(C)C)c2ccccn2)cc1" ?
Response: N

Request: Outcome? COc1ccc(C2CNC(=O)C2)cc1OC1CCCC1 (stereo not given)
Response: N

Request: Please indicate how the test categorized "CCC[C@H](N[C@@H](C)C(=O)N1[C@H](C(=O)O)C[C@@H]2CCCC[C@@H]21)C(=O)OCC" .
Response: N

Request: For CC1CCc2cc(F)cc3c(=O)c(C(=O)O)cn1c23 (stereo not given) , which call appears in the assay record?
Response: N

Request: Dear all, I need the recorded test outcome for "C=CCc1ccc(O)c(OC)c1" , thank you.
Response: N

Request: Lab log entry: "CC[C@@]1(O)C[C@H](O[C@H]2C[C@H](N(C)C)[C@H](O)[C@H](C)O2)c2c(cc3c(c2O)C(=O)c2c(O)ccc(O)c2C3=O)[C@H]1C(=O)OC" — outcome as called in the assay?
Response: Y

Request: What did this assay record as the result for "COc1ccc2c(c1)OC/C(=C\c1ccc(OC)c(O)c1)C2=O" ?
Response: Y

Values compiled from PubChem BioAssay AID1159580.
